Source listed as patent US20080269343A1.

assay comment: Single and multiple dose 300 mg pharmacokinetic study in Japanese and Caucasian healthy male subjects (Example 5)
Assay type: in vivo, human
experimental context: male, human, plasma, oral, 300 mg, arithmetic mean (SD); single dose 300 mg, Caucasian subjects n=19; read-out: Cmax
assay metric: Cmax (ng/mL)
Your answer is read as ng/mL, so omit the unit and give the number.

Quick one: Cmax of COCCCOc1cc(C[C@@H](C[C@H](N)[C@@H](O)C[C@H](C(=O)NCC(C)(C)C(N)=O)C(C)C)C(C)C)ccc1OC [aliskiren] ?
186

* * *

assay comment: Steady-state pharmacokinetics of aliskiren 300 mg alone, furosemide interaction study, Day 13 (Example 6)
Assay type: in vivo, human
experimental context: both sexes, human, in vivo, oral, 300 mg, Median, 300 mg daily, Day 13, healthy volunteers N 21
assay metric: AUC (ng·h/mL)
Your answer is read as ng·h/mL, so omit the unit and give the number.

Quick one: AUC of COCCCOc1cc(C[C@@H](C[C@H](N)[C@@H](O)C[C@H](C(=O)NCC(C)(C)C(N)=O)C(C)C)C(C)C)ccc1OC ?
1810

* * *

assay comment: Steady-state pharmacokinetics of aliskiren 300 mg alone, hydrochlorothiazide interaction study, Day 15 (Example 7)
Assay type: in vivo, human
experimental context: both sexes, human, in vivo, oral, 300 mg, Median, 300 mg daily, Day 15, healthy volunteers N 22
assay metric: Cmax (ng/mL)
Your answer is read as ng/mL, so omit the unit and give the number.

Quick one: Cmax of COCCCOc1cc(C[C@@H](C[C@H](N)[C@@H](O)C[C@H](C(=O)NCC(C)(C)C(N)=O)C(C)C)C(C)C)ccc1OC ?
406

* * *

assay comment: Steady-state pharmacokinetics of aliskiren 300 mg alone, hydrochlorothiazide interaction study, Day 15 (Example 7)
Type: in vivo, human
experimental context: both sexes, human, in vivo, oral, 300 mg, Geometric Mean, 300 mg daily, Day 15, healthy volunteers N 22
assay metric: Tmax (h)
Your answer is read as h, so omit the unit and give the number.

Quick one: Tmax of COCCCOc1cc(C[C@@H](C[C@H](N)[C@@H](O)C[C@H](C(=O)NCC(C)(C)C(N)=O)C(C)C)C(C)C)ccc1OC ?
1.84

* * *

assay comment: Steady-state pharmacokinetics of aliskiren 300 mg alone, hydrochlorothiazide interaction study, Day 15 (Example 7)
Format: in vivo, human
experimental context: both sexes, human, in vivo, oral, 300 mg, Median, 300 mg daily, Day 15, healthy volunteers N 22
assay metric: AUC (ng·h/mL)
Your answer is read as ng·h/mL, so omit the unit and give the number.

Quick one: AUC of COCCCOc1cc(C[C@@H](C[C@H](N)[C@@H](O)C[C@H](C(=O)NCC(C)(C)C(N)=O)C(C)C)C(C)C)ccc1OC [aliskiren] ?
2320

* * *

assay comment: Single-dose 300 mg pharmacokinetic study in healthy and type 2 diabetic subjects (Example 4)
Type: in vivo, human
experimental context: human, plasma, po, 300 mg, Median; single oral dose 300 mg, healthy subjects n = 30; read-out: tmax
assay metric: Tmax (h)
Your answer is read as h, so omit the unit and give the number.

Quick one: Tmax of COCCCOc1cc(C[C@@H](C[C@H](N)[C@@H](O)C[C@H](C(=O)NCC(C)(C)C(N)=O)C(C)C)C(C)C)ccc1OC ?
1.25
